// cell viability lookup, one value per entry
Tested on: myeloid leukemia patient primary cells Pat.6
Test: cell viability (% survival relative to DMSO control); higher = less cytotoxic
Conditions: 1000 nM; 72 h

{"compound": "Oc1ccc(Nc2nc(-c3ccc(Cl)cc3)cs2)cc1", "test.system": "myeloid leukemia patient primary cells Pat.6", "cell viability": "93.1%"}
{"compound": "N#CC(C#N)=NNc1ccc(OC(F)(F)F)cc1", "test.system": "myeloid leukemia patient primary cells Pat.6", "cell viability": "65.5%"}

## Task For myeloid leukemia patient primary cells Pat.6, provide cell viability of Nc1nc(Cl)nc2c1ncn2[C@H]1C[C@H](O)[C@@H](CO)O1 please.
## Result 6.84%

## Task Short answer please: cell viability, myeloid leukemia patient primary cells Pat.6, entry COc1cc(/C=C/C(=O)N2CCC=CC2=O)cc(OC)c1OC
## Result > 100%

## Task For the record COC(=O)[C@]12CCC(C)(C)C[C@H]1[C@H]1C(=O)C=C3[C@@]4(C)C=C(C#N)C(=O)C(C)(C)[C@@H]4CC[C@@]3(C)[C@]1(C)CC2 , what value of cell viability is listed for myeloid leukemia patient primary cells Pat.6?
## Result 17.6%

## Task # returns recorded cell viability (system: myeloid leukemia patient primary cells Pat.6) for CCC(=O)N1CCN(c2ccc(-n3c(=O)ccc4cnc5ccc(-c6cnc7ccccc7c6)cc5c43)cc2C(F)(F)F)CC1
## Result 62.6%

## Task Reported cell viability for myeloid leukemia patient primary cells Pat.6, given C=C(C)[C@H]1Cc2c(ccc3c2O[C@@H]2COc4cc(OC)c(OC)cc4[C@@H]2C3=O)O1 ?
## Result 37.3%

## Task What reported cell viability corresponds to Cc1c(-c2ccc(-c3ccccc3F)cc2)nc2ccc(F)cc2c1C(=O)O on myeloid leukemia patient primary cells Pat.6?
## Result 97.8%

## Task GET /values?readout=cell viability&system=myeloid leukemia patient primary cells Pat.6&item= C=C(C=NNC(=N)N)NNC(=N)N
## Result 1.04%

---

Tested on: myeloid leukemia patient primary cells Pat.13
Assay: cell viability (% survival relative to DMSO control); higher = less cytotoxic
Conditions: 1 nM; 72 h
So basically, if cell viability comes in under 90% it's MET, and if it's 90% or more it's NOT MET.

{"molecule": "COc1cc(/C=C/C(=O)N2CCC=CC2=O)cc(OC)c1OC [Piperlongumine]", "class.label": "MET"}

## Task A record lists CC[C@@]1(O)C(=O)OCc2c1cc1n(c2=O)Cc2cc3c(CN(C)C)c(O)ccc3nc2-1 [Topotecan] . Is its cell viability below 90%?
## Result MET

## Task Determine if O=C(O)Cn1nnc(-c2cc(N3CCC(Oc4cc(F)ccc4Br)CC3)no2)n1 [MK-8245] shows cell viability strictly lower than 90%.
## Result MET

## Task Field: below-cutoff. Rule: recorded cell viability strictly less than 90%. Subject: CN(C)C(=O)n1nnnc1Cc1ccc(-c2ccccc2)cc1
## Result MET

## Task Here's an entry: C[C@H](NC(=O)c1sccc1OCc1ccc(Cl)cc1)c1ccccc1 . Is its cell viability below 90%?
## Result NOT MET

---

Tested on: ML-2
Assay: cell viability (% survival relative to DMSO control, bortezomib = 0%); higher = less cytotoxic
Settings: 1 nM; 72 h
attribute.measured: cell viability
Answer format: value, then unit.

Before answering, review these 3 worked examples.
{"compound": "O=C1O[C@H]([C@@H](O)CO)C(O)=C1O [Vitamin C (ascorbate)]", "measured.value": "103%"}
{"compound": "CCCCN1C[C@H](O)[C@@H](O)[C@H](O)[C@H]1CO", "measured.value": "95.4%"}
{"compound": "C[C@H](NC(=O)c1sccc1OCc1ccc(Cl)cc1)c1ccccc1", "measured.value": "104%"}

As a next step, examine the compound that follows.
## Task State the recorded cell viability for this entry: COc1cc(/C=C/C(=O)N2CCC=CC2=O)cc(OC)c1OC
## Result 102%

---

Recorded cell viability values for a group of compounds are listed next.
System: MOLM-13
Test: cell viability (% survival relative to DMSO control, bortezomib = 0%); higher = less cytotoxic
Conditions: 10000 nM; 72 h
API: value field is a number in %; no unit string.

{"compound": "CN(C)c1cc(NC(=O)CNC(C)(C)C)c(O)c2c1C[C@H]1C[C@H]3[C@H](N(C)C)C(=O)C(C(N)=O)C(=O)[C@@]3(O)C(=O)C1C2=O (some centres undefined) [Tigecycline]", "unit.descriptor": "%", "cell viability": 88.9}

## Task Which cell viability value belongs to C[C@](N)(Cc1ccc(O)cc1)C(=O)O [Metirosine] ?
## Result 95.7

## Task Fill in the blank: the reported cell viability of Cc1coc2c1C(=O)C(=O)c1c-2ccc2c1CCCC2(C)C [Tanshinone IIA] is ____.
## Result 89.6

## Task Report cell viability for O[C@H]1[C@H]2[C@H](O)CCCN2C[C@H]1O [Swainsonine] please.
## Result 85.6

---

Test system: myeloid leukemia patient primary cells Pat.5
Assay: area under dose-response curve (viability, 1 nM-10 uM) (fraction (0-1)); higher = more sensitive
Conditions: 72 h
Let's look at some compounds and their measured area under dose-response curve.
Number only, please.

{"compound": "O=C1c2cc([N+](=O)[O-])ccc2-n2c1nc1ccccc1c2=O", "area under dose-response curve": 0.292}
{"compound": "O=C(O)Cn1nnc(-c2cc(N3CCC(Oc4cc(F)ccc4Br)CC3)no2)n1", "area under dose-response curve": 0.0448}

## Task Item under review: O=C1O/C(=C/Br)CCC1c1cccc2ccccc12 (stereo not drawn) . Reported area under dose-response curve?
## Result 0.828

## Task Bench note: what area under dose-response curve did CCC(=O)N1CCN(c2ccc(-n3c(=O)ccc4cnc5ccc(-c6cnc7ccccc7c6)cc5c43)cc2C(F)(F)F)CC1 show?
## Result 0.802

## Task Entry CN(C)C(=O)n1nnnc1Cc1ccc(-c2ccccc2)cc1 : reported area under dose-response curve = ?
## Result 0.798

## Task Name the reported area under dose-response curve value associated with the compound N#CC(C#N)=NNc1ccc(OC(F)(F)F)cc1
## Result 0.825

## Task Recorded area under dose-response curve of C[C@H](NC(=O)c1sccc1OCc1ccc(Cl)cc1)c1ccccc1 , please.
## Result 0.338

## Task Look at this compound and give its reported area under dose-response curve. C=C(C)[C@H]1Cc2c(ccc3c2O[C@@H]2COc4cc(OC)c(OC)cc4[C@@H]2C3=O)O1
## Result 0.99

---

Tested on: Mono-Mac-6
Test: cell viability (% survival relative to DMSO control, bortezomib = 0%); higher = less cytotoxic
Details: 10000 nM; 72 h
Below is a list of entries, each paired with its recorded cell viability value.
Field: numeric (%). Do not append units.

Field: example entries. Status: answers known.
{"compound": "CCN(CC)CCCC(C)Nc1ccnc2cc(Cl)ccc12 (stereo not given)", "unit.descriptor": "%", "measured.value": 92.1}
{"compound": "CCOP(=O)(OCC)C(=Cc1cc(C(C)(C)C)c(O)c(C(C)(C)C)c1)P(=O)(OCC)OCC", "unit.descriptor": "%", "measured.value": 57.6}
{"compound": "Oc1ccc(Nc2nc(-c3ccc(Cl)cc3)cs2)cc1", "unit.descriptor": "%", "measured.value": 14.3}
{"compound": "CCCCCCCCCCC[C@@H](C[C@@H]1OC(=O)[C@H]1CCCCCC)OC(=O)[C@H](CC(C)C)NC=O", "unit.descriptor": "%", "measured.value": 87.7}

## Task Lab note: need cell viability with Mono-Mac-6 for entry O=c1cc(-c2ccccc2)oc2cc(O)c(O)c(O)c12 , please look it up.
## Result 75.4

---

The entries below come with measured cell viability values attached.
System: HL-60
Assay: cell viability (% survival relative to DMSO control); higher = less cytotoxic
Settings: 0.1 µM; 72 h; co-treatment: pictilisib 100 nM
Number in %, nothing else.

# count of solved cases: 3
{"compound": "O=C(C1CC1)N1CC[C@@H](C=C2NNC(=O)N2c2ccc(-c3ccc4occc4c3)cc2)C1", "unit.descriptor": "%", "cell viability": 92.5}
{"compound": "O=C(NCCCCCCNC(=O)ONC1=CCCCC1)ONC1=CCCCC1", "unit.descriptor": "%", "cell viability": 104}
{"compound": "COc1ccc(-c2ccccc2)cc1NS(=O)(=O)c1cc(Cl)cc(Cl)c1O", "unit.descriptor": "%", "cell viability": 114}

## Task # query: cell viability of entry Nc1ccccc1C(=O)C[C@H](N)C(=O)O
## Result 103

## Task cell viability lookup needed for N#CC(C#N)=NNc1ccc(OC(F)(F)F)cc1 , thanks.
## Result 94.6

## Task What does the record list as cell viability for CCOP(=O)(OCC)C(=Cc1cc(C(C)(C)C)c(O)c(C(C)(C)C)c1)P(=O)(OCC)OCC ?
## Result 107

## Task May I ask what cell viability has been recorded for CCC(=O)N1CCN(c2ccc(-n3c(=O)ccc4cnc5ccc(-c6cnc7ccccc7c6)cc5c43)cc2C(F)(F)F)CC1 ?
## Result 80

## Task Need cell viability, item COc1ccc(S(=O)(=O)N2CCN(S(=O)(=O)c3ccc4c(c3)OCCO4)CC2)cc1
## Result 100
